- Test system: Candida albicans No. 927
- protocol text: Antifungal activity, culture growth with pH indicator
- Type: cell-based
- Parameters: key: (−) No growth; the indicator is blue; (±) Weak growth; the indicator is yellow, but the precipitate of grown cells looks as a diffuse spot; (+) Strong growth; the indicator is yellow, and the cell precipitate looks as a compact spot
- details: dilution : 64 of 1 × 10^−4 M
attribute measured: Test culture growth at various dilutions of the agent

Solved entries:
{"compound": "C[C@@H]1C/C=C/C=C/C=C/C=C/[C@H](O[C@@H]2O[C@H](C)[C@@H](O)[C@H](N)[C@@H]2O)C[C@@H]2O[C@](O)(C[C@@H](O)C[C@H]3O[C@@H]3/C=C/C(=O)O1)C[C@H](O)[C@H]2C(=O)O [Pimafucin, reference compound]", "result": "+"}
{"compound": "C=CC1=C(C)c2cc3[n-]c(cc4nc(cc5[n-]c(cc1n2)c(C)c5CCC(=O)N[C@@H](CCCNC(=N)N)C(=O)OC)C(CCC(=O)N[C@@H](CCCNC(=N)N)C(=O)OC)=C4C)c(C)c3C=C.[Cl-].[Fe+3]", "result": "+"}
{"compound": "C=CC1=C(C)c2cc3[n-]c(cc4nc(cc5[n-]c(cc1n2)c(C)c5CCC(=O)N[C@@H](CO)C(=O)OC)C(CCC(=O)N[C@@H](CO)C(=O)OC)=C4C)c(C)c3C=C.[Cl-].[Fe+3]", "result": "+"}
{"compound": "C=CC1=C(C)c2cc3[n-]c(cc4[n-]c(cc5nc(cc1n2)C(C)=C5C=C)c(C)c4CCC(=O)O)c(CCC(=O)O)c3C.[Cl-].[Fe+3]", "result": "+"}
{"compound": "C=CC1=C(C)c2cc3[n-]c(cc4nc(cc5[n-]c(cc1n2)c(C)c5CCC(=O)NCCO)C(CCC(=O)NCCO)=C4C)c(C)c3C=C.[Cl-].[Fe+3]", "result": "+"}

Let us move to another entry and its Test culture growth at various dilutions of the agent.
Incoming: Item C=CC1=C(C)c2cc3[n-]c(cc4nc(cc5[n-]c(cc1n2)c(C)c5CCC(=O)N[C@@H](CCC(=O)N[C@@H](CCCNC(=N)N)C(=O)OC)C(=O)N[C@@H](CCCNC(=N)N)C(=O)OC)C(CCC(=O)N[C@@H](CCC(=O)N[C@@H](CCCNC(=N)N)C(=O)OC)C(=O)N[C@@H](CCCNC(=N)N)C(=O)OC)=C4C)c(C)c3C=C.[Cl-].[Fe+3] with Candida albicans No. 927 - Test culture growth at various dilutions of the agent?
Outgoing: ±
